Provide the reported growth of each item.
# Test system: ACHN renal
# assay.protocol: NCI-60 one-dose screen, 48 h (100 = growth as untreated, 0 = no growth, -100 = all killed)
# details: 10 µM unless noted
About 83,000 compounds went through this panel and 20% of them were active in at least one assay; those are over-represented in the sample as a whole.
Give bare numbers, in %.

// known answers, use as guide
CC(=O)/C=C/c1ccc(N(CCO)Cc2ccc(C(C)(C)C)cc2)cc1 = 80.5
COC(=O)c1nc(-c2ccc(C)cc2)oc1S(=O)(=O)c1ccc(Cl)cc1 = 80.4
Cn1cc(C2=C(c3cccc4ccccc34)C(=O)NC2=O)c2cc(Br)ccc21 = 80.6
CCN(c1cc(-c2ccc(CN3CCC(/C=C/S(=O)(=O)c4ccccc4)CC3)cc2)cc(C(=O)NCc2c(C)cc(C)[nH]c2=O)c1C)C1CCOCC1 = 80

Note: attention shifts to another entry.
### Prompt Supply growth measured with ACHN renal for `COc1ccc(N2CCN(S(=O)(=O)c3oc(-c4ccccc4)nc3C#N)CC2)cc1` .
### Response 79.2

----------
# System: MDA-MB-435 melanoma
# assay.protocol: NCI-60 one-dose screen, 48 h
# details: 10 µM unless noted
About 83,000 compounds went through this panel and 20% of them were active in at least one assay; those are over-represented in the sample as a whole. The source made the active and inactive calls. The calls were made as follows: active = growth percent below 10; inactive = the rest.
Tick one outcome: active, inactive

The following molecules have reported results that may help.
COc1cc(/C=N/NC(=O)CCN2c3ccccc3Sc3ccccc32)cc(OC)c1OC = inactive
COc1ccc(/C=C2/C(=O)N=C3N2NC(c2ccccc2)=CN3c2ccccc2)cc1 = inactive
c1ccc(Cc2cccc[n+]2C(c2ccccc2)c2ccccc2)cc1 = inactive

### Prompt Could you kindly confirm the outcome this assay logged for `C=C1C(=O)O[C@H]2[C@H]1CC/C(CNS(=O)(=O)c1ccc3ccccc3c1)=C\CC[C@@]1(C)O[C@@H]21` ?
### Response active

### Prompt Could you kindly confirm the outcome this assay logged for `C[C@]12CCc3c(ccc4cc(O)ccc34)[C@@H]1C[C@H](O)[C@@H]2O` ?
### Response inactive

### Prompt Could you kindly confirm the outcome this assay logged for `Clc1ccc2c(c1)N(c1ncnc3ccc(-c4cnc5[nH]ccc5c4)cc13)CC2` ?
### Response active

----------
# Tested on: NCI-H322M lung
# assay.protocol: NCI-60 one-dose screen, 48 h
# details: 10 µM unless noted
Compounds without any hit were thinned out: in the full panel of roughly 83,000, 20% have a hit. The source made the active and inactive calls. The calls were made as follows: active = growth percent below 10; inactive = the rest.
Tick one outcome: Y = active, N = inactive

The following compounds have reported results that may help.
O=C1CCc2c(sc3[nH]c(=S)n(Cc4ccc(Cl)cc4)c(=O)c23)C1 = N
C=C1C(=O)O[C@@H]2[C@H]3[C@H](COC(C)=O)[C@@H](OC(C)=O)C[C@H]3C(=C)[C@@H](O)C[C@@H]12 = N
CCCCCCCCN(CCCCCCCC)CC(O)c1cc(Cl)ccc1OC (stereo unspecified) = N

### Prompt Could you kindly confirm the outcome this assay logged for `CCOC(=O)c1nc2c3ccccc3cnn2c1C(=O)c1ccc(OC)cc1` ?
### Response N

### Prompt Could you kindly confirm the outcome this assay logged for `COc1ccc(-c2ccc(-c3ccc(C(=N)N)cn3)s2)cc1Cl` ?
### Response Y

### Prompt Could you kindly confirm the outcome this assay logged for `O=C(N=Nc1c(O)[nH]c2ccccc12)Nc1ccccc1Cl` ?
### Response N

### Prompt Could you kindly confirm the outcome this assay logged for CN(Cc1ccccc1)c1nc(Cl)c(C2CC(c3ccc4c(c3)OCO4)=NN2c2cc(Cl)cc(Cl)c2)s1 (stereo unspecified) ?
### Response N
